Biological target: human CRTH2 (Homo sapiens, UniProt Q9Y5Y4)
Sequence (Q9Y5Y4 whole entry): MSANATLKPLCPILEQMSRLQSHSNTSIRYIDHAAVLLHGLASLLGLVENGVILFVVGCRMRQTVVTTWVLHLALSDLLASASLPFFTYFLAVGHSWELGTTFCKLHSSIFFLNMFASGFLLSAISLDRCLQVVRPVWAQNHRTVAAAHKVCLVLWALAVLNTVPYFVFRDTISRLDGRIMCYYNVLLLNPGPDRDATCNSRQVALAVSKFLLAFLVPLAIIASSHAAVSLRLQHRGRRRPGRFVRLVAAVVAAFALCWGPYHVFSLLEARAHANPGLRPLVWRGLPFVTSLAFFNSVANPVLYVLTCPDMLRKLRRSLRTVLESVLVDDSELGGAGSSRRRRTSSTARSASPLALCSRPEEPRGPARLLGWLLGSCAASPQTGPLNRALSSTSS
The entries below are paired with their reported Ki.

| COMPOUND | TEST_TARGET | Ki |
| --- | --- | --- |
| Cc1onc(-c2ccccc2)c1CN1C(c2c(C)n(CC(=O)O)c3ccccc23)c2ccccc2S1(=O)=O (centres unmarked) | human CRTH2 (Homo sapiens, UniProt Q9Y5Y4) | < 100 nM |
| Cc1noc(C)c1CN1C(C)(c2c(C)n(CC(=O)O)c3ccccc23)c2ccccc2S1(=O)=O (centres unmarked) | human CRTH2 (Homo sapiens, UniProt Q9Y5Y4) | < 100 nM |
| Cc1noc(C)c1CN1N=C(c2c(C)n(CC(=O)O)c3ccc(F)cc23)c2ccccc2S1(=O)=O | human CRTH2 (Homo sapiens, UniProt Q9Y5Y4) | < 100 nM |
| CCOC(=O)CN1C(c2c(C)n(CC(=O)O)c3ccccc23)c2ccccc2S1(=O)=O (centres unmarked) | human CRTH2 (Homo sapiens, UniProt Q9Y5Y4) | < 1000 nM |
| Cc1c(C2c3ccccc3S(=O)(=O)N2C(C)C)c2ccccc2n1CC(=O)O (centres unmarked) | human CRTH2 (Homo sapiens, UniProt Q9Y5Y4) | < 1000 nM |
| CN1N=C(c2cn(CC(=O)O)c3ccccc23)c2ccccc2S1(=O)=O | human CRTH2 (Homo sapiens, UniProt Q9Y5Y4) | < 10000 nM |
| Cc1c(C2NS(=O)(=O)c3cc(F)ccc32)c2ccccc2n1CC(=O)O (centres unmarked) | human CRTH2 (Homo sapiens, UniProt Q9Y5Y4) | < 1000 nM |
| Cc1c(C2(C)c3ccccc3S(=O)(=O)N2CCOc2ccccc2)c2ccccc2n1CC(=O)O (centres unmarked) | human CRTH2 (Homo sapiens, UniProt Q9Y5Y4) | < 1000 nM |
